STUDY TARGET: Estrogen receptor (Homo sapiens); note: in other assays of this panel Not Active means under 50% inhibition at 10 µM
Sequence (P03372 whole entry): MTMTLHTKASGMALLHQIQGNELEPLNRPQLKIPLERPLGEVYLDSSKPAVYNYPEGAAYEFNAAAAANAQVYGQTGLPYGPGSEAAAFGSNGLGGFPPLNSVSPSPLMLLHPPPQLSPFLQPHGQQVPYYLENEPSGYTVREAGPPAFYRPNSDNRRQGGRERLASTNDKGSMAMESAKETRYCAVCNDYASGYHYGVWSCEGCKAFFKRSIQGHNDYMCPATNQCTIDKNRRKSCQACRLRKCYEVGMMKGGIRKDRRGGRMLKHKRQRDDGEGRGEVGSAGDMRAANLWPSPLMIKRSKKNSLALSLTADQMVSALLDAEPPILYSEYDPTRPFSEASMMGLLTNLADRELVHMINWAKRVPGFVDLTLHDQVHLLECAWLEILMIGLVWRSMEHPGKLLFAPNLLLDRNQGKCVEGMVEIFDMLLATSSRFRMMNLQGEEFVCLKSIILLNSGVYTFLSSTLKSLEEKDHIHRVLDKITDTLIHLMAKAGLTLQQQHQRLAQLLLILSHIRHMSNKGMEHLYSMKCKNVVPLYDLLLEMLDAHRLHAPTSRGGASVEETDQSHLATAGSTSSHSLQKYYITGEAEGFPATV
ASSAY INFO: biochemical
Catalogue of molecules with associated pKi
Units for pKi: none; it is -log10 of a concentration expressed in mol/L.

Provide the documented pKi with Estrogen receptor (Homo sapiens) as the system for C#C[C@]1(O)CC[C@H]2[C@@H]3CCc4cc(OC)ccc4[C@H]3CC[C@@]21C 8.28

Provide the documented pKi with Estrogen receptor (Homo sapiens) as the system for C[C@]12CC[C@@H]3c4ccc(OC(=O)c5ccccc5)cc4CC[C@H]3[C@@H]1CC[C@@H]2O [ESTRADIOL BENZOATE] 7.74

----------
ASSAY INFO: DRUGMATRIX: Serotonin (5-Hydroxytryptamine) 5-HT3 radioligand binding (ligand: [3H] GR-65630)
Assay type: cell membranes, Membrane
EXPERIMENTAL CONDITIONS: hek293; Not Active = under 50% inhibition at 10 µM
VALUE TYPE: Ki

Worked cases, answers included:
State the recorded Ki for this entry: CC(C)CC(N(C)C)C1(c2ccc(Cl)cc2)CCC1 (stereo not given) Not Active

State the recorded Ki for this entry: C#C[C@]1(O)CC[C@H]2[C@@H]3CCc4cc(OC)ccc4[C@H]3CC[C@@]21C Not Active

State the recorded Ki for this entry: Nc1ccn([C@@H]2CS[C@H](CO)O2)c(=O)n1 Not Active

State the recorded Ki for this entry: Cn1c(=O)c2c(ncn2CC2OCCO2)n(C)c1=O Not Active

Here is another compound to look at.
State the recorded Ki for this entry: CCCN(CCC)C(=O)C(CCC(=O)O)NC(=O)c1ccccc1 (stereo not given) [PROGLUMIDE] Not Active

----------
STUDY TARGET: Cysteinyl leukotriene receptor 1 (Homo sapiens, UniProt Q9Y271); note: in other assays of this panel Not Active means under 50% inhibition at 10 µM
Sequence (Q9Y271 whole entry): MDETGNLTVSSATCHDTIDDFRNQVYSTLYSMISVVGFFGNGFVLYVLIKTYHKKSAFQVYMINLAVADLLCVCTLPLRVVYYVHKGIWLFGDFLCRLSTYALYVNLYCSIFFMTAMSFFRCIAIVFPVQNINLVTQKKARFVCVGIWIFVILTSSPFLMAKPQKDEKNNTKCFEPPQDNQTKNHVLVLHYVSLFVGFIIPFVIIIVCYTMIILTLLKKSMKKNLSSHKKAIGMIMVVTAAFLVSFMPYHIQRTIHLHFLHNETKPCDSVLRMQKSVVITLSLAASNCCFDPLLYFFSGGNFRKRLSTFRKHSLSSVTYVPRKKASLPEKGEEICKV
Type: cell membranes, CHO-K1, Membrane
EXPERIMENTAL CONDITIONS: cho-k1
VALUE TYPE: IC50

State the recorded IC50 for this entry: O=C(C1CCCCC1)N1CC(=O)N2CCc3ccccc3C2C1 (configuration not stated) [PRAZIQUANTEL] Not Active

State the recorded IC50 for this entry: CCC1=C[C@@H]2CN(C1)Cc1c([nH]c3ccccc13)[C@@](C(=O)OC)(c1cc3c(cc1OC)N(C)[C@H]1[C@@](O)(C(=O)OC)[C@H](OC(C)=O)[C@]4(CC)C=CCN5CC[C@]31[C@@H]54)C2 [VINORELBINE] Not Active

State the recorded IC50 for this entry: C=CCN1CC[C@]23c4c5ccc(O)c4O[C@H]2C(=O)CC[C@@]3(O)[C@H]1C5 [NALOXONE] Not Active

State the recorded IC50 for this entry: CC(C)c1nc(CN(C)C(=O)N[C@H](C(=O)N[C@@H](Cc2ccccc2)C[C@H](O)[C@H](Cc2ccccc2)NC(=O)OCc2cncs2)C(C)C)cs1 [RITONAVIR] Not Active

State the recorded IC50 for this entry: Cc1cc(C)nc(NS(=O)(=O)c2ccc(N)cc2)n1 [SULFAMETHAZINE] Not Active

State the recorded IC50 for this entry: CCN(CC)CCOC(=O)c1ccc(N)cc1 [PROCAINE] Not Active

State the recorded IC50 for this entry: CCCCN1CCCCC1C(=O)Nc1c(C)cccc1C.Cl (configuration not stated) [BUPIVACAINE HYDROCHLORIDE] Not Active

State the recorded IC50 for this entry: NC(=O)NO [HYDROXYUREA] Not Active

---
State the recorded IC50 for this entry: CC(C)Cc1ccc(C(C)C(=O)O)cc1 (configuration not stated) [IBUPROFEN] Not Active

State the recorded IC50 for this entry: CC(=O)N1CCN(c2ccc(OCC3COC(Cn4ccnc4)(c4ccc(Cl)cc4Cl)O3)cc2)CC1 (configuration not stated) [KETOCONAZOLE] Not Active

State the recorded IC50 for this entry: C[C@]12CC[C@@H]3c4ccc(OC(=O)c5ccccc5)cc4CC[C@H]3[C@@H]1CC[C@@H]2O [ESTRADIOL BENZOATE] Not Active

State the recorded IC50 for this entry: Cc1cc2cc3c(C)cc(=O)oc3c(C)c2o1 [TRIOXSALEN] Not Active

State the recorded IC50 for this entry: Cc1onc(-c2ccccc2)c1-c1ccc(S(N)(=O)=O)cc1 [VALDECOXIB] Not Active

State the recorded IC50 for this entry: CCc1c2c(nc3ccc(OC(=O)N4CCC(N5CCCCC5)CC4)cc13)-c1cc3c(c(=O)n1C2)COC(=O)[C@]3(O)CC [IRINOTECAN] Not Active

State the recorded IC50 for this entry: C[C@H]1C[C@H]2[C@@H]3CCC4=CC(=O)C=C[C@]4(C)[C@@]3(Cl)[C@@H](O)C[C@]2(C)[C@@]1(O)C(=O)CO [BECLOMETHASONE] Not Active

State the recorded IC50 for this entry: CC[C@@H](CO)NCCN[C@@H](CC)CO [ETHAMBUTOL] Not Active

State the recorded IC50 for this entry: COC(=O)C1=C(C)NC(C)=C(C(=O)OCC(C)C)C1c1ccccc1[N+](=O)[O-] (configuration not stated) [NISOLDIPINE] Not Active

State the recorded IC50 for this entry: S=C=Nc1cccc2ccccc12 [1-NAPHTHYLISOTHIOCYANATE] Not Active

State the recorded IC50 for this entry: C#C[C@]1(O)CC[C@H]2[C@@H]3CCc4cc(OC)ccc4[C@H]3CC[C@@]21C [MESTRANOL] Not Active

State the recorded IC50 for this entry: CC(C)(C(=O)c1cccnc1)c1cccnc1 [METYRAPONE] Not Active

State the recorded IC50 for this entry: Nc1c(CC(=O)O)cccc1C(=O)c1ccc(Br)cc1 [BROMFENAC] Not Active

State the recorded IC50 for this entry: NC(=O)c1cnccn1 [PYRAZINAMIDE] Not Active

State the recorded IC50 for this entry: Cc1nccn1CC1CCc2c(c3ccccc3n2C)C1=O (configuration not stated) [ONDANSETRON] Not Active

Every entry's value here was drawn from ChEMBL document CHEMBL1909046.
